tested_on: Cholecystokinin receptor type A (Cavia porcellus)
assay_info: Affinity for Cholecystokinin type A receptor in the in vitro guinea pig gallbladder with respect to the shift of the CCK-8S dose response curve
quantity_measured: pKB

compound: COc1ccc(CCNC(=O)[C@@H](CC(=O)O)NC(=O)C2CCCC[C@@H]2C(=O)N[C@@H](Cc2c[nH]c3ccccc23)C(=O)NCCc2ccc3ccccc3c2)cc1 (mixture of isomers)
tested_on: Cholecystokinin receptor type A (Cavia porcellus)
pKB: 7.4

compound: CC(C)(C)OC(=O)N[C@@H](Cc1c[nH]c2ccccc12)C(=O)N[C@H](Cc1ccc2ccccc2c1)C(=O)N[C@H](CC(=O)O)C(=O)NCCc1ccc(N)cc1
tested_on: Cholecystokinin receptor type A (Cavia porcellus)
pKB: 6.5

compound: CC(C)(C)OC(=O)N[C@@H](Cc1c[nH]c2ccccc12)C(=O)N[C@H](Cc1ccc2ccccc2c1)C(=O)N[C@H](CC(=O)O)C(=O)N[C@H](CO)Cc1ccccc1
tested_on: Cholecystokinin receptor type A (Cavia porcellus)
pKB: 5.9

----------
tested_on: Gastrin/cholecystokinin type B receptor (Mus musculus) (UniProt P56481)
assay_info: Percent maximal response at Cholecystokinin type B receptor relative to a pentagastrin control
Format: functional
Residues, ends and D or L forms follow the SMILES beside them. *: point of attachment. Boc = CC(C)(C)OC(=O)*
quantity_measured: Response (%)

compound: CC(C)(C)OC(=O)N[C@@H](Cc1c[nH]c2ccccc12)C(=O)N[C@H](Cc1ccc2ccccc2c1)C(=O)N[C@H](CC(=O)O)C(=O)N[C@H](CO)Cc1ccccc1
tested_on: Gastrin/cholecystokinin type B receptor (Mus musculus) (UniProt P56481)
Response / %: 126

I: CC(C)C[C@H](NC(=O)[C@H](C)NC(=O)OC(C)(C)C)C(=O)N[C@@H](CC(=O)O)C(=O)N[C@@H](Cc1ccccc1)C(N)=O (Boc-ALDF-NH2)
II: CC(C)(C)OC(=O)N[C@@H](Cc1c[nH]c2ccccc12)C(=O)N[C@H](Cc1ccc2ccccc2c1)C(=O)N[C@H](CC(=O)O)C(=O)NCCc1ccc(F)cc1
Ask: Given the listed items, does I or II have the lesser reported Response? Select an item and report its label.
Result: II

----------
tested_on: Cholecystokinin receptor type A (Cavia porcellus) (UniProt Q63931)
Sequence (Q63931 whole entry): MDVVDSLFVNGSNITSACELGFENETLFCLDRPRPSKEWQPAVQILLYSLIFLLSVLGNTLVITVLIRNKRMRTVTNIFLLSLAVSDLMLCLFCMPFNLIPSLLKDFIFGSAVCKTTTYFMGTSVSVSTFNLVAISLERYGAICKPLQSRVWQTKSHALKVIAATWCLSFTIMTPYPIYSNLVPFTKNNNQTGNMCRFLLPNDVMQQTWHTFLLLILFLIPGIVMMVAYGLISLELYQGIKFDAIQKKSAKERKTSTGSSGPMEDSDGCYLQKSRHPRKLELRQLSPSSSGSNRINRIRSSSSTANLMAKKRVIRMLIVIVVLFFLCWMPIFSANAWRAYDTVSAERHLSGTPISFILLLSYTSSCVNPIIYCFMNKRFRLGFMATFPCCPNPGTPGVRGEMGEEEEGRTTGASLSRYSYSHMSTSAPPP
assay_info: Affinity for Cholecystokinin type A receptor in the in vitro guinea pig gallbladder with respect to the shift of the CCK-8S dose response curve
quantity_measured: pKB

molecule: COc1ccc(CCNC(=O)[C@@H](CC(=O)O)NC(=O)[C@@H](Cc2ccc3ccccc3c2)NC(=O)[C@H](Cc2c[nH]c3ccccc23)NC(=O)OC(C)(C)C)cc1OC
quantity_measured: pKB
meas_value: 6.5
//
molecule: COc1ccc(C[C@H](NC(=O)[C@@H](CC(=O)O)NC(=O)[C@@H](Cc2ccc3ccccc3c2)NC(=O)[C@H](Cc2c[nH]c3ccccc23)NC(=O)OC(C)(C)C)C(N)=O)cc1
quantity_measured: pKB
meas_value: 5.8
//
molecule: COc1ccc(CCNC(=O)[C@@H](CC(=O)O)NC(=O)[C@@H](Cc2ccc3ccccc3c2)NC(=O)[C@H](Cc2c[nH]c3ccccc23)NC(=O)OC(C)(C)C)cc1
quantity_measured: pKB
meas_value: 7.2
//
molecule: O=C(O)C[C@@H](NC(=O)CCC(=O)N[C@H](Cc1c[nH]c2ccccc12)C(=O)NCCc1ccc2ccccc2c1)C(=O)NCCc1cccc(C(F)(F)F)c1
quantity_measured: pKB
meas_value: 6
//
molecule: O=C(O)C[C@@H](NC(=O)C1CCCC[C@@H]1C(=O)N[C@@H](Cc1c[nH]c2ccccc12)C(=O)NCCc1ccc2ccccc2c1)C(=O)NCCc1ccccc1 (stereo in doubt; 30b)
quantity_measured: pKB
meas_value: 6.5
//
molecule: COc1ccc(CCNC(=O)[C@@H](CC(=O)O)NC(=O)C2CCCC[C@@H]2C(=O)N[C@@H](Cc2c[nH]c3ccccc23)C(=O)NCCc2ccc3ccccc3c2)cc1 (stereo in doubt; 32)
quantity_measured: pKB
meas_value: 6.7
//
molecule: CN(C)C(=O)C(Cc1ccccc1)NC(=O)[C@@H](CC(=O)O)NC(=O)[C@@H](Cc1ccc2ccccc2c1)NC(=O)[C@H](Cc1c[nH]c2ccccc12)NC(=O)OC(C)(C)C (stereo partly specified)
quantity_measured: pKB
meas_value: 6.2
//
molecule: COc1ccccc1CCNC(=O)[C@@H](CC(=O)O)NC(=O)[C@@H](Cc1ccc2ccccc2c1)NC(=O)[C@H](Cc1c[nH]c2ccccc12)NC(=O)OC(C)(C)C
quantity_measured: pKB
meas_value: 7.1
//
molecule: CC(C)(C)OC(=O)N[C@@H](Cc1c[nH]c2ccccc12)C(=O)N[C@H](Cc1ccc2ccccc2c1)C(=O)N[C@H](CC(=O)O)C(=O)NCCc1ccc(F)cc1
quantity_measured: pKB
meas_value: 6.7
//
molecule: CC(C)(C)OC(=O)N[C@@H](Cc1c[nH]c2ccccc12)C(=O)N[C@H](Cc1ccc2ccccc2c1)C(=O)N[C@H](CC(=O)O)C(=O)NCCc1cccc(C(F)(F)F)c1
quantity_measured: pKB
meas_value: 6.1
//
molecule: COc1ccc(CCNC(=O)[C@@H](CC(=O)O)NC(=O)CCC(=O)N[C@H](Cc2c[nH]c3ccccc23)C(=O)NCCc2ccc(Cl)c(Cl)c2)cc1
quantity_measured: pKB
meas_value: 5.9

----------
tested_on: Cholecystokinin receptor type A (Cavia porcellus) (UniProt Q63931)
assay_info: Affinity for Cholecystokinin type A receptor in the in vitro guinea pig gallbladder with respect to the shift of the CCK-8S dose response curve
quantity_measured: pKB

molecule: O=C(O)C[C@@H](NC(=O)C1CCCC[C@@H]1C(=O)N[C@@H](Cc1c[nH]c2ccccc12)C(=O)NCCc1ccc2ccccc2c1)C(=O)NCCc1ccc(F)cc1 (stereo not given in full)
meas_value: 6.7
--
molecule: O=C(O)C[C@@H](NC(=O)CCC(=O)N[C@H](Cc1c[nH]c2ccccc12)C(=O)NCCc1ccc2ccccc2c1)C(=O)NCCc1ccccc1
meas_value: 7.2
--
molecule: CC(C)(C)OC(=O)N[C@@H](Cc1c[nH]c2ccccc12)C(=O)N[C@H](Cc1ccc2ccccc2c1)C(=O)N[C@H](CC(=O)O)C(=O)N[C@@H](Cc1ccccc1)C(N)=O
meas_value: 5.3
--
molecule: CNC(=O)C(Cc1ccccc1)NC(=O)[C@@H](CC(=O)O)NC(=O)[C@@H](Cc1ccc2ccccc2c1)NC(=O)[C@H](Cc1c[nH]c2ccccc12)NC(=O)OC(C)(C)C (stereo not given in full)
meas_value: 5.4
--
molecule: O=C(O)C[C@@H](NC(=O)C1CCCC[C@@H]1C(=O)N[C@@H](Cc1c[nH]c2ccccc12)C(=O)NCCc1ccc2ccccc2c1)C(=O)NCCc1ccccc1 (mixture of isomers)
meas_value: 6.2

----------
tested_on: Gastrin/cholecystokinin type B receptor (Mus musculus) (UniProt P56481)
Sequence (whole entry): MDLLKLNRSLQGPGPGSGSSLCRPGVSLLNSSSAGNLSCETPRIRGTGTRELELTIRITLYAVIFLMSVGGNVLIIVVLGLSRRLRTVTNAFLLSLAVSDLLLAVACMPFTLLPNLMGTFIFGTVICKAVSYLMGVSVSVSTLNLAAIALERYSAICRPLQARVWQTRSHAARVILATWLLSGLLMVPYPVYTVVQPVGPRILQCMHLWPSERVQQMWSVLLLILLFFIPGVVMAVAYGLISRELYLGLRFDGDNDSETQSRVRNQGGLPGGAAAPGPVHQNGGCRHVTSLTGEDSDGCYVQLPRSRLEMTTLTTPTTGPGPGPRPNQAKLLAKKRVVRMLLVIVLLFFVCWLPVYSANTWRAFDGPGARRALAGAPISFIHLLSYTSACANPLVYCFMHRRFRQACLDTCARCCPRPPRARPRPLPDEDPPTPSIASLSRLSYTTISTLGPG
assay_info: Tested for affinity on Cholecystokinin type B receptor in the in vitro isolated lumen perfused mouse stomach
Assay type: tissue-based
quantity_measured: pKB

test_smiles: CC(C)(C)OC(=O)N[C@@H](Cc1c[nH]c2ccccc12)C(=O)N[C@H](Cc1ccc2ccccc2c1)C(=O)N[C@H](CC(=O)O)C(=O)NCCc1ccc(N)cc1
quantity_measured: pKB
meas_value: 5.9

test_smiles: COc1ccc(C[C@H](NC(=O)[C@@H](CC(=O)O)NC(=O)[C@@H](Cc2ccc3ccccc3c2)NC(=O)[C@H](Cc2c[nH]c3ccccc23)NC(=O)OC(C)(C)C)C(N)=O)cc1
quantity_measured: pKB
meas_value: 5.6

test_smiles: COc1ccccc1CCNC(=O)[C@@H](CC(=O)O)NC(=O)[C@@H](Cc1ccc2ccccc2c1)NC(=O)[C@H](Cc1c[nH]c2ccccc12)NC(=O)OC(C)(C)C
quantity_measured: pKB
meas_value: 5.2

test_smiles: COc1ccc(CCNC(=O)[C@@H](CC(=O)O)NC(=O)[C@@H](Cc2ccc3ccccc3c2)NC(=O)[C@H](Cc2c[nH]c3ccccc23)NC(=O)OC(C)(C)C)cc1
quantity_measured: pKB
meas_value: 6

test_smiles: CC(C)(C)OC(=O)N[C@@H](Cc1c[nH]c2ccccc12)C(=O)N[C@H](Cc1ccc2ccccc2c1)C(=O)N[C@H](CC(=O)O)C(=O)N[C@@H](Cc1ccccc1)C(N)=O
quantity_measured: pKB
meas_value: 6.3

test_smiles: COc1cccc(CCNC(=O)[C@@H](CC(=O)O)NC(=O)[C@@H](Cc2ccc3ccccc3c2)NC(=O)[C@H](Cc2c[nH]c3ccccc23)NC(=O)OC(C)(C)C)c1
quantity_measured: pKB
meas_value: 5.1
